conditions: in n-butanol, 318.15 K
parameterMeasured: solubility (mole fraction)
# respond with the number and nothing more

Inquiry: Query (compound): `Cl.N/N=C(\N)NN` ; field requested: solubility (mole fraction)
Reply text: 0.000432

----------
conditions: in ethanol, 323.15 K
parameterMeasured: solubility (mole fraction)

Inquiry: Please look up its solubility (mole fraction): `Cl.N/N=C(\N)NN`
Reply text: 0.002

----------
details: in water, 278.15 K
parameterMeasured: solubility (mole fraction)
Lab note: write the figure by itself, no unit.

Inquiry: Could you tell me which solubility (mole fraction) is on file for `Cl.N/N=C(\N)NN` ?
Reply text: 0.0481

----------
details: in acetonitrile, 308.15 K
parameterMeasured: solubility (mole fraction)
Format: numeric value only, no unit, no commentary.

Inquiry: Look up solubility (mole fraction): `Cl.N/N=C(\N)NN`
Reply text: 6.91e-05

----------
conditions: in water, 288.15 K
parameterMeasured: solubility (mole fraction)

Inquiry: Looking for the measured solubility (mole fraction) of `Cl.N/N=C(\N)NN` , can you help?
Reply text: 0.0664

----------
details: in n-propanol, 323.15 K
parameterMeasured: solubility (mole fraction)

Inquiry: Which solubility (mole fraction) value belongs to `Cl.N/N=C(\N)NN` ?
Reply text: 0.000675

----------
conditions: in isopropanol, 318.15 K
parameterMeasured: solubility (mole fraction)
Just the number, please, no unit attached.

Inquiry: Endpoint output: solubility (mole fraction) of `Cl.N/N=C(\N)NN` . Value?
Reply text: 0.000326

----------
conditions: in water, 283.15 K
parameterMeasured: solubility (mole fraction)
Reply with just the number.

Inquiry: # lookup: solubility (mole fraction) of `Cl.N/N=C(\N)NN`
Reply text: 0.0546

----------
conditions: in ethyl acetate, 298.15 K
parameterMeasured: solubility (mole fraction)
Give the figure only, with no unit attached.

Inquiry: Looking for the measured solubility (mole fraction) of `Cl.N/N=C(\N)NN` , can you help?
Reply text: 7.51e-05

----------
settings: in acetonitrile, 278.15 K
parameterMeasured: solubility (mole fraction)
API note: the answer field is a bare number with no unit suffix.

Inquiry: Could you tell me which solubility (mole fraction) is on file for `Cl.N/N=C(\N)NN` ?
Reply text: 1.19e-05

----------
details: in THF, 308.15 K
parameterMeasured: solubility (mole fraction)
A bare number is all that is needed in reply.

Inquiry: For `Cl.N/N=C(\N)NN` , what is its reported solubility (mole fraction)?
Reply text: 0.000154

----------
settings: in n-hexane, 293.15 K
parameterMeasured: solubility (mole fraction)
Number only, no unit.

Inquiry: Entry `Cl.N/N=C(\N)NN` has what solubility (mole fraction)?
Reply text: 6.58e-05

----------
conditions: in methanol, 283.15 K
parameterMeasured: solubility (mole fraction)
The answer should be written as a number, with no unit following it.

Inquiry: Suppose we examine the molecule `Cl.N/N=C(\N)NN` ; what solubility (mole fraction) value has been reported?
Reply text: 0.00338

----------
settings: in n-propanol, 318.15 K
parameterMeasured: solubility (mole fraction)

Inquiry: Form field: reported solubility (mole fraction) of `Cl.N/N=C(\N)NN`
Reply text: 0.000539

----------
conditions: in ethanol, 308.15 K
parameterMeasured: solubility (mole fraction)

Inquiry: Recorded solubility (mole fraction) of `Cl.N/N=C(\N)NN` , please.
Reply text: 0.000904

----------
conditions: in acetonitrile, 303.15 K
parameterMeasured: solubility (mole fraction)

Inquiry: // returns reported solubility (mole fraction) for input `Cl.N/N=C(\N)NN`
Reply text: 5.02e-05

----------
conditions: in n-heptane, 323.15 K
parameterMeasured: solubility (mole fraction)
Number only, please.

Inquiry: Can you look up the measured solubility (mole fraction) of `Cl.N/N=C(\N)NN` for me?
Reply text: 0.000334

----------
details: in ethyl acetate, 283.15 K
parameterMeasured: solubility (mole fraction)

Inquiry: // query solubility (mole fraction) value for entry `Cl.N/N=C(\N)NN`
Reply text: 3.03e-05

----------
details: in water, 308.15 K
parameterMeasured: solubility (mole fraction)
No unit in the answer, only the number.

Inquiry: Fill in the blank: the reported solubility (mole fraction) of `Cl.N/N=C(\N)NN` is ____.
Reply text: 0.112

----------
conditions: in isopropanol, 278.15 K
parameterMeasured: solubility (mole fraction)
// response body must contain only the number

Inquiry: Please report the recorded solubility (mole fraction) for `Cl.N/N=C(\N)NN` .
Reply text: 3.39e-05

----------
conditions: in isopropanol, 323.15 K
parameterMeasured: solubility (mole fraction)
Could you respond with only the numeric value?

Inquiry: Return reported solubility (mole fraction); argument: `Cl.N/N=C(\N)NN`
Reply text: 0.000417

----------
details: in n-hexane, 298.15 K
parameterMeasured: solubility (mole fraction)
Answer as a number with no unit attached.

Inquiry: For `Cl.N/N=C(\N)NN` , what is its reported solubility (mole fraction)?
Reply text: 8.84e-05

----------
details: in n-propanol, 278.15 K
parameterMeasured: solubility (mole fraction)
Would you mind answering with just the numeric figure?

Inquiry: For `Cl.N/N=C(\N)NN` , what is its reported solubility (mole fraction)?
Reply text: 5.9e-05

----------
conditions: in n-heptane, 273.15 K
parameterMeasured: solubility (mole fraction)
Number only, no unit.

Inquiry: Fill blank: measured solubility (mole fraction) of the compound `Cl.N/N=C(\N)NN` is ____.
Reply text: 1.74e-05

----------
conditions: in n-heptane, 278.15 K
parameterMeasured: solubility (mole fraction)
Output spec: single numeric token, no unit.

Inquiry: What measured solubility (mole fraction) goes with `Cl.N/N=C(\N)NN` ?
Reply text: 2.52e-05

----------
conditions: in isobutanol, 273.15 K
parameterMeasured: solubility (mole fraction)

Inquiry: # query: solubility (mole fraction) of entry `Cl.N/N=C(\N)NN`
Reply text: 2.22e-05

----------
conditions: in isopropanol, 293.15 K
parameterMeasured: solubility (mole fraction)
Lab note: jot down the number only; don't add units.

Inquiry: Would you kindly share the measured solubility (mole fraction) for `Cl.N/N=C(\N)NN` ?
Reply text: 8.43e-05

----------
conditions: in methanol, 273.15 K
parameterMeasured: solubility (mole fraction)
Form field (numeric): enter value without unit.

Inquiry: If you can, please state the reported solubility (mole fraction) value of `Cl.N/N=C(\N)NN` .
Reply text: 0.00218

----------
conditions: in ethanol, 278.15 K
parameterMeasured: solubility (mole fraction)
The answer should be written as a number, with no unit following it.

Inquiry: Which solubility (mole fraction) is reported for this compound? `Cl.N/N=C(\N)NN`
Reply text: 0.000156

----------
settings: in ethyl acetate, 293.15 K
parameterMeasured: solubility (mole fraction)
Kindly provide the number alone.

Inquiry: Given `Cl.N/N=C(\N)NN` , state its recorded solubility (mole fraction).
Reply text: 5.57e-05

----------
settings: in isobutanol, 288.15 K
parameterMeasured: solubility (mole fraction)
No unit in the answer, only the number.

Inquiry: Using the record for `Cl.N/N=C(\N)NN` , report its solubility (mole fraction).
Reply text: 5.88e-05

----------
conditions: in isobutanol, 303.15 K
parameterMeasured: solubility (mole fraction)
Just the number, please.

Inquiry: Would you kindly share the measured solubility (mole fraction) for `Cl.N/N=C(\N)NN` ?
Reply text: 0.000134

----------
conditions: in n-heptane, 293.15 K
parameterMeasured: solubility (mole fraction)
Please give the numeric answer without any surrounding text.

Inquiry: State the recorded solubility (mole fraction) for this entry: `Cl.N/N=C(\N)NN`
Reply text: 6.36e-05

----------
details: in n-butanol, 303.15 K
parameterMeasured: solubility (mole fraction)
Write no unit; give the number alone.

Inquiry: # query: solubility (mole fraction) of entry `Cl.N/N=C(\N)NN`
Reply text: 0.000197

----------
conditions: in THF, 318.15 K
parameterMeasured: solubility (mole fraction)
Would you mind answering with just the numeric figure?

Inquiry: Value lookup for solubility (mole fraction); key = `Cl.N/N=C(\N)NN`
Reply text: 0.000265

----------
settings: in n-hexane, 303.15 K
parameterMeasured: solubility (mole fraction)

Inquiry: Which solubility (mole fraction) is listed for `Cl.N/N=C(\N)NN` ?
Reply text: 0.000115

----------
conditions: in n-butanol, 293.15 K
parameterMeasured: solubility (mole fraction)

Inquiry: Using the record for `Cl.N/N=C(\N)NN` , report its solubility (mole fraction).
Reply text: 0.000111

----------
settings: in methanol, 298.15 K
parameterMeasured: solubility (mole fraction)
Would you mind answering with just the numeric figure?

Inquiry: Query (compound): `Cl.N/N=C(\N)NN` ; field requested: solubility (mole fraction)
Reply text: 0.00664

----------
details: in isobutanol, 323.15 K
parameterMeasured: solubility (mole fraction)
Just the number, please, no unit after it.

Inquiry: Look at this compound and give its reported solubility (mole fraction). `Cl.N/N=C(\N)NN`
Reply text: 0.000389

----------
conditions: in methanol, 303.15 K
parameterMeasured: solubility (mole fraction)
// return just the number, without any unit appended

Inquiry: Param item = `Cl.N/N=C(\N)NN` ; retrieve measured solubility (mole fraction).
Reply text: 0.00802

----------
settings: in isobutanol, 278.15 K
parameterMeasured: solubility (mole fraction)
Just the number, please.

Inquiry: Give the measured solubility (mole fraction) of `Cl.N/N=C(\N)NN` .
Reply text: 3.04e-05
